target: human JNK1 (Homo sapiens, UniProt P45983)
Construct: His6 (Met-Ala-His6, read from primer JNK1-U) (N); cJUN substrate from E. coli JM109
Sequence (P45983 1-384 isoform P45983-2): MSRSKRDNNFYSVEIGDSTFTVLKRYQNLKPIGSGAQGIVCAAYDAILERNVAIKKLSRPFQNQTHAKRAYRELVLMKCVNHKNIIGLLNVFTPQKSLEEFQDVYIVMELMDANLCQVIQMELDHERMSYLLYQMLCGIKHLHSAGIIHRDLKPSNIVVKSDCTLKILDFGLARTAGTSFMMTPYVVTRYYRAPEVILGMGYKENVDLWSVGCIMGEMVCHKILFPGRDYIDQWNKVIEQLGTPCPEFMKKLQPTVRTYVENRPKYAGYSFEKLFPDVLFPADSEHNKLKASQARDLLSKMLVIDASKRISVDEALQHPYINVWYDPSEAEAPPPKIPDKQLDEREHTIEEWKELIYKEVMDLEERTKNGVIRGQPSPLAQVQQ
assayDetails: Measurement of JNK inhibitory activity (32P uptake into cJUN by active JNK1)
conditionNotes: 2.5 μM ATP, 30° C., 60 min
measurementLabel: IC50 (nM)

COC(=O)c1c(-c2ccccc2)c2cc(Br)ccc2c(=O)n1Cc1ccc(NC(=O)CCC(=O)O)cc1 [Example 122]; 9.2

I: COC(=O)c1c(-c2ccccc2)c2cc(Br)ccc2c(=O)n1Cc1ccc(C(=O)NCCN2CCCC2)cc1 [Example 141]
II: COC(=O)c1c(-c2ccccc2)c2cc(Br)ccc2c(=O)n1Cc1ccc(S(N)(=O)=O)cc1 [Example 93]
III: CCN(CC)NC(=O)c1ccc(Cn2c(C(=O)OC)c(-c3ccccc3)c3cc(Br)ccc3c2=O)cc1 [Example 356]
IV: COC(=O)c1c(-c2ccccc2)c2cc(Br)ccc2c(=O)n1CC1CCN(C(C)=O)CC1 [Example 112]
Inquiry: Put these in order: smallest IC50 first, largest last. # respond with the labels, arranged in the requested order
Reply text: III, II, I, IV
(III: 7.5 nM, II: 14 nM, I: 37 nM, IV: 3000 nM)

* * *

target: p38α (Homo sapiens, UniProt Q16539)
Sequence (Q16539 whole entry): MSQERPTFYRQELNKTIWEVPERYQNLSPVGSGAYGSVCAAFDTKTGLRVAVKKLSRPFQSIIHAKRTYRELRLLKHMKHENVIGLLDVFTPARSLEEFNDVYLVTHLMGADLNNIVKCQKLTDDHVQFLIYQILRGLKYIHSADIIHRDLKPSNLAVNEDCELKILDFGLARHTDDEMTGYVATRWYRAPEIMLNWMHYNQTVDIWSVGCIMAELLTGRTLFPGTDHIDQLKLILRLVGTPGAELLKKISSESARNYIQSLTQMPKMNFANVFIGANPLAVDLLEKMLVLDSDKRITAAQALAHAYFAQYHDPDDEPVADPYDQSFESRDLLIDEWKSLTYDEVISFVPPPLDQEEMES
assayDetails: Inhibitory action on p38α
Assay type: biochemical
measurementLabel: inhibition at 10 µM (%)

Answered cases to consult:
COC(=O)c1c(-c2ccccc2)c2cc(Br)ccc2c(=O)n1Cc1ccc(C(=O)O)cc1 [Example 102]; 0
COC(=O)c1c(-c2ccccc2)c2cc(Br)ccc2c(=O)n1Cc1ccc(S(N)(=O)=O)cc1 [Example 93]; 20
COC(=O)c1c(-c2ccccc2)c2cc(Br)ccc2c(=O)n1CC1CCN(C(C)=O)CC1 [Example 112]; 0
COC(=O)c1c(-c2ccccc2)c2cc(Br)ccc2c(=O)n1Cc1ccc(C(=O)NCCN2CCCC2)cc1 [Example 141]; 10
C/C(N)=C/C(=O)c1c(-c2ccccc2)c2cc(Br)ccc2c(=O)n1Cc1ccc(S(C)(=O)=O)cc1 [Example 546]; 0

P: COC(=O)c1c(-c2ccccc2)c2cc(N)ccc2c(=O)n1Cc1ccc2c(c1)OCO2 [Example 156]
Q: CC(=O)c1c(-c2ccccc2)c2cc(Br)ccc2c(=O)n1Cc1ccc(S(N)(=O)=O)cc1 [Example 415]
Inquiry: Hello, I am sorting some records. Could you say if P or Q has the smaller inhibition at 10 µM value? Label of pick, please.
Reply text: Q
(Q: 0%, P: 10%)

* * *

target: ERK1 (Homo sapiens, UniProt P27361)
Sequence (P27361 whole entry): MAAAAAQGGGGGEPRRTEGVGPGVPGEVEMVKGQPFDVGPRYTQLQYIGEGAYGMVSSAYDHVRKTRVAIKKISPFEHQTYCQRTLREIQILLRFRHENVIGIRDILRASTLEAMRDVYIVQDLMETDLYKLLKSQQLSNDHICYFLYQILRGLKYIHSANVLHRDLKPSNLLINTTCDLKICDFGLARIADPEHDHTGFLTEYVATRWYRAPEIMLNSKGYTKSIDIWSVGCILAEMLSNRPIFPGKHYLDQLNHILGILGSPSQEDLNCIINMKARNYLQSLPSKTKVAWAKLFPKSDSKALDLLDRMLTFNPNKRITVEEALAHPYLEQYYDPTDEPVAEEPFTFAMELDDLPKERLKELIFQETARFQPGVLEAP
assayDetails: Inhibitory action on ERK1
Type: biochemical
measurementLabel: inhibition at 10 µM (%)

Answered cases to consult:
COC(=O)c1c(-c2ccccc2)c2cc(Br)ccc2c(=O)n1Cc1ccc(NC(=O)CCC(=O)O)cc1; 0
COC(=O)c1c(-c2ccccc2)c2cc(Br)ccc2c(=O)n1Cc1ccc(S(C)(=O)=O)cc1; 0
CCC(=O)c1c(-c2ccccc2)c2cc(Cl)ccc2c(=O)n1Cc1ccc(C(=O)O)cc1; 22
C/C(N)=C/C(=O)c1c(-c2ccccc2)c2cc(Br)ccc2c(=O)n1Cc1ccc(S(C)(=O)=O)cc1; 5
CCCC(=O)c1c(-c2ccccc2)c2cc(Cl)ccc2c(=O)n1Cc1ccc(S(N)(=O)=O)cc1; 0

P: COC(=O)c1c(-c2ccccc2)c2cc(Br)ccc2c(=O)n1Cc1ccc(C(=O)O)cc1
Q: CCC(=O)c1c(-c2ccccc2)c2cc(Br)ccc2c(=O)n1Cc1ccc(C(=O)O)cc1
Inquiry: Hello, I am sorting some records. Could you say if P or Q has the smaller inhibition at 10 µM value? Label of pick, please.
Reply text: P
(P: 0%, Q: 13%)

a: COC(=O)c1c(-c2ccccc2)c2cc(Br)ccc2c(=O)n1CC1CCN(C(C)=O)CC1
b: CCC(=O)c1c(-c2ccccc2)c2cc(Br)ccc2c(=O)n1Cc1ccc(-c2nnn[nH]2)cc1
c: COC(=O)c1c(-c2ccccc2)c2cc(N)ccc2c(=O)n1Cc1ccc2c(c1)OCO2
d: CCC(=O)c1c(-c2ccccc2)c2cc(Br)ccc2c(=O)n1Cc1ccc(S(C)(=O)=O)cc1
Inquiry: Put these in order: smallest inhibition at 10 µM first, largest last. # respond with the labels, arranged in the requested order
Reply text: a, d, c, b

A: COC(=O)c1c(-c2ccccc2)c2cc(Br)ccc2c(=O)n1Cc1ccc(C(=O)NCCN2CCCC2)cc1
B: COC(=O)c1c(-c2ccccc2)c2cc(Br)ccc2c(=O)n1Cc1ccc2c(c1)OCO2
C: COC(=O)c1c(-c2ccccc2)c2cc(Br)ccc2c(=O)n1Cc1ccc(S(N)(=O)=O)cc1
Inquiry: Put these in order: smallest inhibition at 10 µM first, largest last. # respond with the labels, arranged in the requested order
Reply text: C, A, B
